B1: H2-Kb / Ed28 (parent complex)
chain 1: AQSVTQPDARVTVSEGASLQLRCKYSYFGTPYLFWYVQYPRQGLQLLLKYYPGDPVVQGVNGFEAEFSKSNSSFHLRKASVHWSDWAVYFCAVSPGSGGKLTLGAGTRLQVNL
chain 2: DSGVVQSPRHIIKEKGGRSVLTCIPISGHSNVVWYQQTLGKELKFLIQHYEKVERDKGFLPSRFSVQQFDDYHSEMNMSALELEDSAMYFCASSPRASDYTFGSGTRLLVI
chain 3: not shown
chain 4: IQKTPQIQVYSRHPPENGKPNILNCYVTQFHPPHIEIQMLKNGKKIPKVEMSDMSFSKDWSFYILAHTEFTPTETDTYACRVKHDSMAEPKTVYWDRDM
chain 5: SIINFEKL

# Variants of: B1
# experiment summary: % of reporter cells activated (NFAT-GFP), raw; further: test concentration or dose not given here
recorded metric: ratio to parent

These recorded examples may help you get a feel for the data.
chain 5 I2W    0.702
chain 5 F5C    1.13
chain 5 I3V    1.08
chain 5 S1F    0.965
chain 5 I2Q    0.574
chain 5 K7H    0.81
chain 5 S1L    0.332
chain 5 L8A    0.709

P: chain 5 F5H
Q: chain 5 N4L
R: chain 5 E6Y
S: chain 5 K7E
T: chain 5 K7V
Your job: order these 5 records by ratio to parent, ascending. Please reply with the labels ordered as requested. Many thanks.
S, R, T, Q, P
(S: 0.013, R: 0.0885, T: 0.159, Q: 0.329, P: 1)
